Test: self-splicing fitness, log relative to wild type (ln ratio); higher = more splicing; Tetrahymena group I intron in knt gene, E. coli kanamycin selection, DiMSum; sequences stand for … in CUCUCU…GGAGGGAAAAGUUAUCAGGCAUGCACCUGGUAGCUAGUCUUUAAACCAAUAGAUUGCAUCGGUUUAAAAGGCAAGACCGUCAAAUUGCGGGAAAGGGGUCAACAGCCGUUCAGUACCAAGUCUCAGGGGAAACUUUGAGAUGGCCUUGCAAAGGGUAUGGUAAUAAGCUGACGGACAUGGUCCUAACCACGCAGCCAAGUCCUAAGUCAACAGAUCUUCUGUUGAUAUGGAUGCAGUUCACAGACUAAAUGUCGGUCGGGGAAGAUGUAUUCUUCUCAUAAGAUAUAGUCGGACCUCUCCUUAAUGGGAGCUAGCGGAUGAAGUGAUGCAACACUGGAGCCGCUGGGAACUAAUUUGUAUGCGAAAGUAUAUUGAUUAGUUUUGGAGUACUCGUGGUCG;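 note: selection with 25 µg/mL kanamycin versus none on LB agar overnight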
Conditions: 30 °C
Label true for high-side self-splicing fitness (ln) (at or above -3) and false for low-side self-splicing fitness (ln) (below it).

Field: example entries. Status: answers known.
input-sequence: AGGCAGCAAUAUUACGUUGG
classification: false
//
input-sequence: CGCAAGCAAUAUUACGACGA
classification: true
//
input-sequence: AGUGAGCAAUAUUACGCCCG
classification: true
//
input-sequence: AAAGAGCAAUAUUACGUUGC
classification: false
//
input-sequence: UUUAAGCAAUAUUACGCAAU
classification: true
//
input-sequence: AAGGAGCAAUAUUACGCCCG
classification: true
//
input-sequence: CUUUAGCAAUAUUACGCCAA
classification: true

Moving on to the next sequence.
Entry GGCUAGCAAUAUUACGUAAA : is its self-splicing fitness (ln) no less than -3?
true

###

self-splicing fitness (ln) values for the sequences below.
Assay: self-splicing fitness, log relative to wild type (ln ratio); higher = more splicing; Tetrahymena group I intron in knt gene, E. coli kanamycin selection, DiMSum; sequences stand for … in CUCUCU…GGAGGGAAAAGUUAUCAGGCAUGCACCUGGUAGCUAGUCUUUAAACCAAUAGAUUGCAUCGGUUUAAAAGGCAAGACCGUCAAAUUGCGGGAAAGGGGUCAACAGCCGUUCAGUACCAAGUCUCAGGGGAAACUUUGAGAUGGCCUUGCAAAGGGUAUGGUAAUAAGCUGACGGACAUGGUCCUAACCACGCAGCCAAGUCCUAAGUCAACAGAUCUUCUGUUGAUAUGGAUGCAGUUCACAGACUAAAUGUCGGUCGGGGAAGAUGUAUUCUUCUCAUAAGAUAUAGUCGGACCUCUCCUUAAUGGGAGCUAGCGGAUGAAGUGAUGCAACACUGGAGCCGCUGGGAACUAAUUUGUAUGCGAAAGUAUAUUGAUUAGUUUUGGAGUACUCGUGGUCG
Settings: 37 °C
Hey, just send me the number, nothing else.

input-sequence: UAUGAGCAAUAUUACGUUGC
self-splicing fitness (ln): -2.65
--
input-sequence: AGCAAGCAAUAUUACGUCAC
self-splicing fitness (ln): -1.88
--
input-sequence: GUAGAGCAAUAUUACGCGCC
self-splicing fitness (ln): -1.67
--
input-sequence: CUGAAGCAAUAUUACGGAAA
self-splicing fitness (ln): -1.43
--
input-sequence: AAAUAGCAAUAUUACGUAAA
self-splicing fitness (ln): -0.713

Measured self-splicing fitness (ln) of CCUGAGCAAUAUUACGCGUA : -2.33
